Organism: Rattus norvegicus
assay protocol: Open TG-GATES - Regimen: Single
Assay type: toxicity, organism-based, Sprague-Dawley
Set-up: regimen Single, gender Male, age 6 weeks
assay setup: in vivo, po, 1000 mg/kg, 6 h, tissue Plasma, route gavage, dose level High
outcome measure: BUN (mg/dL)

CCOC(=O)CCC(=O)O[C@H]1[C@H](O[C@@H]2[C@@H](C)[C@H](O[C@H]3C[C@@](C)(OC)[C@@H](O)[C@H](C)O3)[C@@H](C)C(=O)O[C@H](CC)[C@@](C)(O)[C@H](O)[C@@H](C)C(=O)[C@H](C)C[C@@]2(C)O)O[C@H](C)C[C@@H]1N(C)C [ERYTHROMYCIN ETHYLSUCCINATE]    10.2
NC(N)=Nc1nc(CSCCC(N)=NS(N)(=O)=O)cs1    8.6
COC1=CC(=O)C[C@@H](C)[C@]12Oc1c(Cl)c(OC)cc(OC)c1C2=O    10.4
COc1ccc2[nH]c([S+]([O-])Cc3ncc(C)c(OC)c3C)nc2c1 (stereo not given)    10
CC(C)OC(=O)C(C)(C)Oc1ccc(C(=O)c2ccc(Cl)cc2)cc1 [FENOFIBRATE]    7

----------
Species: Rattus norvegicus
assay protocol: Open TG-GATES - Regimen: Single
Assay type: toxicity, organism-based, Sprague-Dawley
Design: regimen Single, gender Male, age 6 weeks
assay setup: in vivo, po, 0 mg/kg, 9 h, tissue Plasma, route gavage, dose level Control
# ALT per entry
outcome measure: ALT

CC(C)OC(=O)C(C)(C)Oc1ccc(C(=O)c2ccc(Cl)cc2)cc1 [FENOFIBRATE]    38.6 IU/L
CN(C)CCN(Cc1cccs1)c1ccccn1    33.8 IU/L
O=C(CCCN1CCC(O)(c2ccc(Cl)cc2)CC1)c1ccc(F)cc1    32.6 IU/L
NC(N)=Nc1nc(CSCCC(N)=NS(N)(=O)=O)cs1    28.4 IU/L
Cc1ccc(C)c(OCCCC(C)(C)C(=O)O)c1    36.6 IU/L
CC1=C(/C=C/C(C)=C/C=C/C(C)=C/CO)C(C)(C)CCC1    33.8 IU/L
CCOC(=O)CCC(=O)O[C@H]1[C@H](O[C@@H]2[C@@H](C)[C@H](O[C@H]3C[C@@](C)(OC)[C@@H](O)[C@H](C)O3)[C@@H](C)C(=O)O[C@H](CC)[C@@](C)(O)[C@H](O)[C@@H](C)C(=O)[C@H](C)C[C@@]2(C)O)O[C@H](C)C[C@@H]1N(C)C [ERYTHROMYCIN ETHYLSUCCINATE]    38.4 IU/L
COC1=CC(=O)C[C@@H](C)[C@]12Oc1c(Cl)c(OC)cc(OC)c1C2=O    32.4 IU/L
COc1cc2c(c(OC)c1OC)-c1ccc(OC)c(=O)cc1[C@@H](NC(C)=O)CC2    28.8 IU/L
CCOc1ccc(NC(=O)CC(C)O)cc1 (stereo not drawn)    32.8 IU/L
C[C@@H]1C[C@H]2[C@@H]3CCC4=CC(=O)C=C[C@]4(C)[C@@]3(F)[C@@H](O)C[C@]2(C)[C@@]1(O)C(=O)CO    30.6 IU/L
NNC(=O)c1ccncc1    31.4 IU/L
CN(C)CCCN1c2ccccc2CCc2ccccc21    37.4 IU/L

The reported numbers originate from ChEMBL document CHEMBL3885861.
